Give measured pIC50 for each item. Keep answers brief.
# Experimental Target: human DP2 receptor (Homo sapiens, UniProt Q9Y5Y4)
# Sequence (Q9Y5Y4 whole entry): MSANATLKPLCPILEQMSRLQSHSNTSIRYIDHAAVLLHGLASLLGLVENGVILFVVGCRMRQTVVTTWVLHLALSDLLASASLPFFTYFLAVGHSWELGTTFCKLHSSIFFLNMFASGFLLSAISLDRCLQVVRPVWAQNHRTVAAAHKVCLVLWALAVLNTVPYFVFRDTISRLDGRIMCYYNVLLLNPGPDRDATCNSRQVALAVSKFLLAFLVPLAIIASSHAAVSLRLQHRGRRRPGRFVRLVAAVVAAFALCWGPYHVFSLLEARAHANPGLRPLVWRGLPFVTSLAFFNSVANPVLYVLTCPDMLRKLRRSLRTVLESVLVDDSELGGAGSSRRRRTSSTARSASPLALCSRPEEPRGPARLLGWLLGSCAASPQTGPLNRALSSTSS
# Experiment Notes: Prostaglandin D2 binding inhibition assay (scintillation proximity assay, 3H PGD2, membranes of transfected CHO cells)
# Experimental Conditions: SPA, 5.5 nM 3H PGD2, CHO-K1 FLP-In human DP2 membranes; upper limit determinable 30 μM; read-out: IC50 ranges for inhibition of PGD2 binding to human DP2
pIC50: −log10 of the molar value.

Solved cases below.
Exercise: Request body: readout pIC50, system human DP2 receptor (Homo sapiens, UniProt Q9Y5Y4), query CS(=O)(=O)c1ccc(S(=O)(=O)N2CCC(n3c(=O)n(CC(=O)O)c4cccnc43)CC2)cc1 [Compound 90] . Return the value.
Solution: < 4.52

Exercise: Request body: readout pIC50, system human DP2 receptor (Homo sapiens, UniProt Q9Y5Y4), query CS(=O)(=O)c1ccccc1S(=O)(=O)N1CCC(n2c(=O)n(CC(=O)O)c3cccnc32)CC1 [Compound 63] . Return the value.
Solution: > 6.00

Exercise: Request body: readout pIC50, system human DP2 receptor (Homo sapiens, UniProt Q9Y5Y4), query O=C(O)Cn1c(=O)n(C2CCN(S(=O)(=O)c3cccc(Cl)c3)CC2)c2ncccc21 [Compound 37] . Return the value.
Solution: 5.00 to 6.00

Exercise: Request body: readout pIC50, system human DP2 receptor (Homo sapiens, UniProt Q9Y5Y4), query O=C(O)Cn1c(=O)n(C2CCN(S(=O)(=O)c3ccc(OC(F)(F)F)cc3)CC2)c2ncccc21 [Compound 42] . Return the value.
Solution: 5.00 to 6.00

Exercise: Request body: readout pIC50, system human DP2 receptor (Homo sapiens, UniProt Q9Y5Y4), query Cc1ccnc2c1n(CC(=O)O)c(=O)n2C1CCN(S(=O)(=O)c2ccccc2S(C)(=O)=O)CC1 [Compound 117] . Return the value.
Solution: < 4.52

Each compound below has a reported value. Please supply its pIC50.
1. O=C(O)Cn1c(=O)n(C2CCN(S(=O)(=O)c3ccc(Cl)c(Cl)c3)CC2)c2ncccc21 [Compound 35]
2. O=C(O)Cn1c(=O)n([C@@H]2CCCN(S(=O)(=O)c3ccc(Cl)cc3Cl)C2)c2ncccc21 [Compound 115]

Solution:
["5.00 to 6.00", "> 6.00"]

* * *

# Experimental Target: human DP2 receptor (Homo sapiens, UniProt Q9Y5Y4)
# Experiment Notes: Prostaglandin D2 binding inhibition assay (scintillation proximity assay, 3H PGD2, membranes of transfected CHO cells)
# Experimental Conditions: SPA, 5.5 nM 3H PGD2, CHO-K1 FLP-In human DP2 membranes; upper limit determinable 30 μM; read-out: IC50 ranges for inhibition of PGD2 binding to human DP2
Give measured IC50 for each item. Keep answers brief.

Each molecule below has a reported value. Please supply its IC50.
1. CCOc1ccc(S(=O)(=O)N2CCC(n3c(=O)n(CC(=O)O)c4cccnc43)CC2)cc1 [Compound 99]
2. O=C(O)Cn1c(=O)n(C2CCN(S(=O)(=O)c3ccc(Cl)cc3F)CC2)c2ncccc21 [Compound 30]
3. Cc1cnc2c(c1)n(CC(=O)O)c(=O)n2C1CCN(S(=O)(=O)c2ccccc2Cl)CC1 [Compound 127]

Solution:
1. 1 to 10 µM
2. < 1 µM
3. 1 to 10 µM

Each molecule below has a reported value. Please supply its IC50.
1. Cc1ccc(S(=O)(=O)N2CCC[C@H](n3c(=O)n(CC(=O)O)c4cccnc43)C2)c(F)c1 [Compound 110]
2. COc1ccc(S(=O)(=O)N2CCC(n3c(=O)n(CC(=O)O)c4cccnc43)CC2)cc1 [Compound 89]
3. O=C(O)Cn1c(=O)n(C2CCN(S(=O)(=O)c3ccc(-c4ccccc4)cc3)CC2)c2ncccc21 [Compound 81]
4. Cc1cc(C)c(S(=O)(=O)N2CCC(n3c(=O)n(CC(=O)O)c4cccnc43)CC2)c(C)c1 [Compound 50]
5. Cc1ccc(S(=O)(=O)N2CCC(n3c(=O)n(CC(=O)O)c4c(C)ccnc43)CC2)c(F)c1 [Compound 118]

Solution:
1: 1 to 10 µM; 2: 1 to 10 µM; 3: 1 to 10 µM; 4: 1 to 10 µM; 5: > 30 µM

* * *

# Experimental Target: human DP2 receptor (Homo sapiens, UniProt Q9Y5Y4)
# Experiment Notes: Prostaglandin D2 binding inhibition assay (scintillation proximity assay, 3H PGD2, membranes of transfected CHO cells)
# Experimental Conditions: SPA, 5.5 nM 3H PGD2, CHO-K1 FLP-In human DP2 membranes; upper limit determinable 30 μM; read-out: IC50 ranges for inhibition of PGD2 binding to human DP2
pIC50: −log10 of the molar value.
Give measured pIC50 for each item. Keep answers brief.

Solved cases below.
Exercise: Request body: readout pIC50, system human DP2 receptor (Homo sapiens, UniProt Q9Y5Y4), query CS(=O)(=O)c1ccccc1S(=O)(=O)NC1CCC(n2c(=O)n(CC(=O)O)c3cccnc32)CC1 (stereo not shown) . Return the value.
Solution: 5.00 to 6.00

Exercise: Request body: readout pIC50, system human DP2 receptor (Homo sapiens, UniProt Q9Y5Y4), query CS(=O)(=O)c1ccccc1S(=O)(=O)N1CCC(n2c(=O)n(CC(=O)O)c3cccnc32)C1 (stereo not shown) . Return the value.
Solution: > 6.00

Exercise: Request body: readout pIC50, system human DP2 receptor (Homo sapiens, UniProt Q9Y5Y4), query O=C(O)Cn1c(=O)n(C2CCN(S(=O)(=O)C3CCCCC3)CC2)c2ncccc21 . Return the value.
Solution: 5.00 to 6.00

More entries:
Exercise: Request body: readout pIC50, system human DP2 receptor (Homo sapiens, UniProt Q9Y5Y4), query O=C(O)Cn1c(=O)n(C2CCN(S(=O)(=O)c3ccc(Cl)cc3Cl)CC2)c2ncccc21 . Return the value.
Solution: > 6.00
